// data source = patent US5025024A

# assay-info: Bioavailability in the Male Rat (AUC method)
# Assay type: in vivo, male rats of the Sprague-Dawley strain
# test-parameters: blood, 4 umol/kg, id vs iv, 4 μmol/kg, read-out: Bioavailability measured by the AUC-method, F %, Rat
recorded-endpoint: bioavailability (%)
Answers are plain numbers, in %.

CC(C)Oc1ccnc(C[S+]([O-])c2nc3cc(F)ccc3[nH]2)c1 (centres unmarked) | 31

Next:
Query: bioavailability for COc1ccnc(C[S+]([O-])c2nc3c(F)cccc3[nH]2)c1 (centres unmarked) ?
Result: 96

* * *

# assay-info: Bioavailability in the Conscious Dog (AUC method)
# Assay type: in vivo, Harrier dogs
# test-parameters: plasma, id vs iv, AUCid/AUCiv, read-out: Bioavailability measured by the AUC-method, F %, Dog
recorded-endpoint: bioavailability (%)
Answers are plain numbers, in %.

Query: bioavailability for COc1ccnc(C[S+]([O-])c2nc3c(F)cccc3[nH]2)c1 (stereo not shown) ?
Result: 95
